- targetDesc: FLT ligand-induced wild-type FLT3 phosphorylation in Baf3 FLT3 cells (Homo sapiens, UniProt P36888)
- Sequence (P36888 27-993): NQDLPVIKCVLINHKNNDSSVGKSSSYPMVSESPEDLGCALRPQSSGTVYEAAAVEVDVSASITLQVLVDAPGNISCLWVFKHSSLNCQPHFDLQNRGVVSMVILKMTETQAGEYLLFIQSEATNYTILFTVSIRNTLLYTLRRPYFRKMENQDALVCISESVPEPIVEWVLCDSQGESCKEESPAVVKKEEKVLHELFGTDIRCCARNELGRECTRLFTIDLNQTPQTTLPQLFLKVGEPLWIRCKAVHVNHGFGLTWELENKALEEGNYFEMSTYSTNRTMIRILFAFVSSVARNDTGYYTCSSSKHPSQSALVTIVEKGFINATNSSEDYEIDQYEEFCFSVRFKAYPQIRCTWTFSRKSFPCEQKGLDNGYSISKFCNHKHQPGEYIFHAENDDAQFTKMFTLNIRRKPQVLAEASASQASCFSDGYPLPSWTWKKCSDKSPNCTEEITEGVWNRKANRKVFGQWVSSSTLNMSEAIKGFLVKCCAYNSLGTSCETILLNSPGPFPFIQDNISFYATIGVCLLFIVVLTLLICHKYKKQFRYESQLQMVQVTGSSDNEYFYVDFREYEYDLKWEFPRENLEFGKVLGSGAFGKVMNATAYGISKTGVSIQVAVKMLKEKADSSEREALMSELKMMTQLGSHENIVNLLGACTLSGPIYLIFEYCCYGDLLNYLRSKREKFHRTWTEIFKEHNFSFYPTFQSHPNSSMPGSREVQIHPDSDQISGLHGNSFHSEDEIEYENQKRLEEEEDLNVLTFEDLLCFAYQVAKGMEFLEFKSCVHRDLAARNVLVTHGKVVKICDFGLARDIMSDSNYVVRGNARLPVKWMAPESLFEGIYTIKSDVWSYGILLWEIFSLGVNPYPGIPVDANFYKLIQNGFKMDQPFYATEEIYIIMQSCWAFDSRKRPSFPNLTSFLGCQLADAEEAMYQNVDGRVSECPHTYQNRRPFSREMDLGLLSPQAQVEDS
- assayExplanation: Cell-Based FLT3 Receptor Elisa (Baf3 FLT3 cells)
- reportedConditions: 1 hour compound incubation, 100 ng/mL Flt ligand, uncertainty ±20%
measurementLabel: IC50 (nM)
Numbers only; they are read as nM.

Query :: Reported IC50, compound "CC(C)Oc1ccc(NC(=O)OC2CCN(c3ncnc(N)c3/C=N/OCCCN(C)C)CC2)cc1" : ____
Result :: 345

====

This document collects pIC50 values reported for TrkB (Homo sapiens, UniProt Q16620).
pIC50 here: minus log base 10 of the concentration, concentration in moles per litre.

Query :: Requested read-out pIC50, target or system TrkB (Homo sapiens, UniProt Q16620), entry CO/N=C/c1c(N)ncnc1N1CCC(NC(=O)Nc2ccc(N3CCCCC3)cc2)C1 (stereo not drawn)
Result :: 4.92

Query :: Can you look up pIC50 on TrkB (Homo sapiens, UniProt Q16620) for CO/N=C/c1c(N)ncnc1N1CCC(CC(=O)Nc2ccc(C(C)C)cc2)C1 (stereo not drawn) ?
Result :: 6.52

Query :: Look up pIC50 with TrkB (Homo sapiens, UniProt Q16620) for this compound: "CO/N=C/c1c(N)ncnc1N1CCC(OC(=O)Nc2ccc(OC(C)C)cc2)CC1"
Sequence (Q16620 32-822): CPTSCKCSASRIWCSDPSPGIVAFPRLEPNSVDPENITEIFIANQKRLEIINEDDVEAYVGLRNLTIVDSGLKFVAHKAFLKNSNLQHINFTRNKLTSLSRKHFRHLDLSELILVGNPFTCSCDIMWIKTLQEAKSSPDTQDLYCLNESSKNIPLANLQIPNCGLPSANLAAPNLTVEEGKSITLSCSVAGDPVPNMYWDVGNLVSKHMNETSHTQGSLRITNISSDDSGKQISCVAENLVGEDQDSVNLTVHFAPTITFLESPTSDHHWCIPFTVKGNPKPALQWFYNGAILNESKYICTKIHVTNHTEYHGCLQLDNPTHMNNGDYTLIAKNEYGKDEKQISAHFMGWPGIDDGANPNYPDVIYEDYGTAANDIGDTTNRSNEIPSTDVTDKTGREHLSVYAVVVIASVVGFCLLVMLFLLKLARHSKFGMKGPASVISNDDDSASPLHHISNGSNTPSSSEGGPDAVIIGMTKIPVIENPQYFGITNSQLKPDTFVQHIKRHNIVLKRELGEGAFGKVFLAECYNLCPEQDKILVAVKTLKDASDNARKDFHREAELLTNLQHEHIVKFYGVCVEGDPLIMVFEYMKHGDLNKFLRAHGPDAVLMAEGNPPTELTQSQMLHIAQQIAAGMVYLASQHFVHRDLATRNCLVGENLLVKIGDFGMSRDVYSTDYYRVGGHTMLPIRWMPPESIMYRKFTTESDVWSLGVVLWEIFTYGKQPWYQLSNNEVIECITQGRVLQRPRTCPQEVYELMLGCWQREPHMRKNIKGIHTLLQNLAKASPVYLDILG
Result :: 4.53

Query :: Request: pIC50, test system TrkB (Homo sapiens, UniProt Q16620), entry "CO/N=C/c1c(N)ncnc1N1CCC(NC(=O)Nc2ccc(OC(C)C)cc2)CC1"
Result :: 5.07

Query :: Notebook entry, TrkB (Homo sapiens, UniProt Q16620) assay: pIC50 of "CO/N=C/c1c(N)ncnc1N1CCC(NC(=O)Cc2ccc(C(C)C)cc2)CC1" = ?
Result :: 5.13
